- conditionInfo: in methyl acetate, 318.15 K

| smi | solubility (mole fraction) |
| --- | --- |
| COC(=O)[C@H](N)c1ccc(O)cc1 | 0.00385 |

###

- conditionInfo: in water, 293.15 K
valueType: solubility (mole fraction)

| smi | number |
| --- | --- |
| COC(=O)[C@H](N)c1ccc(O)cc1 | 4.81e-05 |

###

- conditionInfo: in n-butyl acetate, 288.15 K

| smi | solubility (mole fraction) |
| --- | --- |
| COC(=O)[C@H](N)c1ccc(O)cc1 | 8.11e-05 |

###

- conditionInfo: in isopropanol, 318.15 K

| smi | solubility (mole fraction) |
| --- | --- |
| COC(=O)[C@H](N)c1ccc(O)cc1 | 0.00517 |
